- Assay: Plasma concentration in mouse at 10 mg/kg, po after 30 mins
- Type: ADME, organism-based
- Parameters: dose 10 mg/kg, route oral
The threshold is 200 ng/mL. Values of concentration at 0.5 h beneath it are tagged condition met; values meeting or exceeding it are tagged condition not met.

>  <Compound>
O=C(c1cc(Cc2n[nH]c(=O)c3ccccc23)ccc1F)N1CCN(C(=O)C2CCOC2)CC1 (stereo not given)

>  <Assigned class>
condition met

$$$$
>  <Compound>
O=C(c1cc(Cc2n[nH]c(=O)c3ccccc23)ccc1F)N1CCN(c2ccccc2)CC1

>  <Assigned class>
condition not met

$$$$
>  <Compound>
O=C(c1cc(Cc2n[nH]c(=O)c3ccccc23)ccc1F)N1CCN(C(=O)C2CC2)CC1

>  <Assigned class>
condition not met

$$$$
>  <Compound>
CCC(=O)N1CCN(C(=O)c2cc(Cc3n[nH]c(=O)c4ccccc34)ccc2F)CC1

>  <Assigned class>
condition not met

$$$$
>  <Compound>
O=C(c1cccc(Cc2n[nH]c(=O)c3ccccc23)c1)N1CCN(c2ncccn2)CC1

>  <Assigned class>
condition not met

$$$$

The reported numbers originate from ChEMBL document CHEMBL1140140.
